experimentalTarget: T1, thrombin-activated EphA2 (endogenous, from lysate of HUVECs stimulated with 1 U/ml thrombin for 5 mins) (human, UniProt P29317 24-976, tyrosine phosphorylated after thrombin stimulation (sites not given))
T1 construct: Endogenous EphA2 in a HUVEC lysate, detected on the array with a biotinylated anti-human EphA2 antibody; No signal peptide limits are stated
T1 sequence (P29317 24-976 limits assumed): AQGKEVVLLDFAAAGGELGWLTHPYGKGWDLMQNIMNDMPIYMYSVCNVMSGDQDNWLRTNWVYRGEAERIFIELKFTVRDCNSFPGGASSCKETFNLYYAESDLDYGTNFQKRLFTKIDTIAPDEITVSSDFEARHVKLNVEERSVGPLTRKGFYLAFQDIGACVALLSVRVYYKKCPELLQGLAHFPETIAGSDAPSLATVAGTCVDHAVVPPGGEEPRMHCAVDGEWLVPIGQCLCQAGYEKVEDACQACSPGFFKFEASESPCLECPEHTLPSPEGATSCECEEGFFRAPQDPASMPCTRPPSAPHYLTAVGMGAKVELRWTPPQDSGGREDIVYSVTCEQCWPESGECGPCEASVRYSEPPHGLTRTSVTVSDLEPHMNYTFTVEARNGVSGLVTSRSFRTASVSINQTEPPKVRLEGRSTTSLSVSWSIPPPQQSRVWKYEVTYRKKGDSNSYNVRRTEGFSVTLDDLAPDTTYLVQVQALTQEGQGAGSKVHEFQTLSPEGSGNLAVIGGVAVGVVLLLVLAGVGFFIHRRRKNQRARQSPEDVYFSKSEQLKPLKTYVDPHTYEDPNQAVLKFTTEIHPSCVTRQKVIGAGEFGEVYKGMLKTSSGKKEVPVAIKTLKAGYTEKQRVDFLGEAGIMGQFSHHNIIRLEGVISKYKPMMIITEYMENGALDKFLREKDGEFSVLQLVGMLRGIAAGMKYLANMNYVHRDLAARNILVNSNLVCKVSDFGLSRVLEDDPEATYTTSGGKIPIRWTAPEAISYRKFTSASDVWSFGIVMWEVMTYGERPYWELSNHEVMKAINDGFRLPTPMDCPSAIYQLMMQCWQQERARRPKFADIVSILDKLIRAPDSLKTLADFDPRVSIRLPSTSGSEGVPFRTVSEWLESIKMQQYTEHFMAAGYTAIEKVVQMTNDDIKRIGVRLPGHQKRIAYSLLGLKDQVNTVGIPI
assay: SH2 domain array with thrombin-stimulated HUVEC lysate, anti-EphA2 detection

>  <binder>
SH2 domain of Yes (other, UniProt P07947 158-255, looked up, domain: SH2 domain) WYFGKMGRKDAERLLLNPGNQRGIFLVRESETTKGAYSLSIRDWDEIRGDNVKHYKIRKLDNGGYYITTRAQFDTLQKLVKHYTEHADGLCHKLTTVC

>  <binding result>
no binding

$$$$
>  <binder>
SH2 domain of Btk (other, UniProt Q06187 281-377, looked up, domain: SH2 domain) WYSKHMTRSQAEQLLKQEGKEGGFIVRDSSKAGKYTVSVFAKSTGDPQGVIRHYVVCSTPQSQYYLAEKHLFSTIPELINYHQHNSAGLISRLKYPV

>  <binding result>
no binding

$$$$
